Cited source for all entries: ChEMBL document CHEMBL3769331

Molecular target: Matrix metalloproteinase-14 (Homo sapiens)
Assay: Inhibition of recombinant human MMP-14 using Mca-Lys-Pro-Leu-Gly-Leu-Dap(Dnp)-Ala-Arg-NH2 as substrate after 3 hrs by fluorometric assay
Measured Endpoint: IC50 (µM)

A. CNC(=O)[C@@H](NC(=O)[C@H](CCCc1ccccc1)[C@H](C)N(O)C=O)C(C)(C)C
B. Cc1cc(C#N)ccc1N1CCN(S(=O)(=O)N[C@H](CCCNC(=O)OCc2ccccc2)C(=O)NO)CC1
C. Cc1cc(C#N)ccc1N1CCN(S(=O)(=O)N2CSC[C@@H]2C(=O)NO)CC1
Prompt line: Order the entries above by descending IC50. List the labels, following the order given in the request.
Response line: C, B, A
(C: 100 µM, B: 50 µM, A: 0.088 µM)
